Z.LYZ.S values, listed per item
- Tested on: ISC-enriched organoids
- assay.notes: Primary screen, 384-well 2.5-D organoid differentiation (ENR+CD, 6 days): carbachol-induced lysozyme secretion (LYZ.S)
- Format: cell-based, murine
- condition.info: standard z score; primary screen; 4th of the 4 dose lines of the treatment (dose not given)
parameter.measured: Z.LYZ.S

>  <smi>
CC(C)C[C@H](NC(=O)CNC(=O)c1cc(Cl)ccc1Cl)B(O)O

>  <reading>
−2.394

$$$$
>  <smi>
O=C(c1cn(Cc2cncn2Cc2ccc(Br)cc2)cc1-c1cccc2ccccc12)N1CCOCC1

>  <reading>
−1.509

$$$$
>  <smi>
COc1ccc(-c2cnc3c(-c4cccc5ncccc45)cnn3c2)cc1

>  <reading>
−1.303

$$$$
>  <smi>
C[C@@H]1CN(CC(=O)Nc2ccc3c(c2)Cc2cccc(-c4cc(=O)cc(N5CCOCC5)o4)c2S3)C[C@H](C)O1

>  <reading>
−1.436

$$$$
>  <smi>
CC(C)c1ccc(NC(=O)Cn2cnc3c2c(=O)n(C)c(=O)n3C)cc1

>  <reading>
0.499

$$$$
>  <smi>
CCC(CC)(NC(=O)C(C)C)C(=O)N[C@@H](CCCN=C(N)N)C(=O)NC1(C(=O)NC(c2ccc(F)cc2)c2ccc(F)cc2)CCCC1

>  <reading>
−1.252

$$$$
>  <smi>
Cc1cnc(NC(=O)Nc2cc(Br)c(C)cc2OC[C@@H]2CNCCO2)cn1

>  <reading>
−2.300

$$$$
>  <smi>
CCOC(=O)N1CCC(=C2c3ccc(Cl)cc3CCc3cccnc32)CC1

>  <reading>
−0.956

$$$$
>  <smi>
Cn1cc(/C=C2\C(=O)Nc3cccnc32)c2ccccc21

>  <reading>
0.458

$$$$
>  <smi>
CCn1c(=O)c2c(nc(/C=C/c3ccc(OC)c(OC)c3)n2C)n(CC)c1=O

>  <reading>
−0.367

$$$$
>  <smi>
c1cc(-c2cnn3cc(-c4ccc(N5CCNCC5)cc4)cnc23)c2cccnc2c1

>  <reading>
−2.582

$$$$
>  <smi>
CCCC(=O)Nc1cccc(NC(=O)c2ccccc2Br)c1

>  <reading>
−0.429

$$$$
>  <smi>
O=C(Nc1cc(C(F)(F)F)cc(C(F)(F)F)c1)c1cc(Cl)ccc1O

>  <reading>
−0.826

$$$$

====

Catalogue of Dose.FC.LYZ.NS readings, one per entry.
- System: ISC-enriched organoids
- assay.notes: Primary screen, 384-well 2.5-D organoid differentiation (ENR+CD, 6 days): basal lysozyme secretion (LYZ.NS)
- Type: cell-based, murine
- condition.info: Dose 0.08 uM; primary screen, FC vs plate median

>  <molecule>
CCCC(C)NC(=O)c1ccc(Cl)c(Cl)c1 (centres unmarked)

>  <Dose.FC.LYZ.NS (log 2 fold change)>
0.008

$$$$
>  <molecule>
Cc1c(C(=O)Nc2ccc(N3C[C@@H](C)O[C@@H](C)C3)nc2)cccc1-c1ccc(OC(F)(F)F)cc1

>  <Dose.FC.LYZ.NS (log 2 fold change)>
0.085

$$$$
>  <molecule>
CC(C)(Cc1ccc2ccccc2c1)NC[C@@H](O)COc1cccc(Cl)c1C#N

>  <Dose.FC.LYZ.NS (log 2 fold change)>
0.162

$$$$
>  <molecule>
Nc1cccc2c1CN(C1CCC(=O)NC1=O)C2=O (centres unmarked) [Lenalidomide (CC-5013)]

>  <Dose.FC.LYZ.NS (log 2 fold change)>
0.147

$$$$
>  <molecule>
COC(=O)CCSCc1ccc(-c2onc(C)c2NC(=O)OC(C)c2ccccc2Cl)cc1 (centres unmarked)

>  <Dose.FC.LYZ.NS (log 2 fold change)>
0.005

$$$$
>  <molecule>
CC(C)(C)c1cc(C(C)(C)C)c(NC(=O)c2c[nH]c3ccccc3c2=O)cc1O

>  <Dose.FC.LYZ.NS (log 2 fold change)>
0.099

$$$$
>  <molecule>
COc1ccc(-c2cnc3c(-c4cccc5ncccc45)cnn3c2)cc1

>  <Dose.FC.LYZ.NS (log 2 fold change)>
0.124

$$$$
>  <molecule>
O=C(Nc1ccccc1)c1cc([N+](=O)[O-])ccc1Cl

>  <Dose.FC.LYZ.NS (log 2 fold change)>
0.035

$$$$
>  <molecule>
CC1=C(C(=O)Nc2cc3cn[nH]c3cc2F)C(c2ccc(C(F)(F)F)cc2)CC(=O)N1 (centres unmarked) [GSK429286A]

>  <Dose.FC.LYZ.NS (log 2 fold change)>
0.137

$$$$
>  <molecule>
Nc1ncnc2c1c(-c1cccc(OCc3ccccc3)c1)cn2C1CC(CN2CCCC2)C1 (centres unmarked)

>  <Dose.FC.LYZ.NS (log 2 fold change)>
0.142

$$$$
>  <molecule>
Fc1cc(F)c2c(c1)[C@H]1C=CC[C@H]1C(c1cccnc1)N2 (mixture of isomers) [Golgicide A]

>  <Dose.FC.LYZ.NS (log 2 fold change)>
0.267

$$$$
>  <molecule>
c1cc(-c2cnn3cc(-c4ccc(N5CCNCC5)cc4)cnc23)c2cccnc2c1

>  <Dose.FC.LYZ.NS (log 2 fold change)>
0.095

$$$$
>  <molecule>
COc1cc(-c2ncn(/C=C\C(=O)OC(C)C)n2)cc(C(F)(F)F)c1

>  <Dose.FC.LYZ.NS (log 2 fold change)>
−0.006

$$$$
>  <molecule>
Cc1noc(-c2ccc(CSCCC(=O)O)cc2)c1NC(=O)OC(C)c1ccccc1Cl (centres unmarked)

>  <Dose.FC.LYZ.NS (log 2 fold change)>
0.001

$$$$
>  <molecule>
C[C@@H](Oc1cc(-n2cnc3ccc(CN4CCN(C)CC4)cc32)sc1C(N)=O)c1ccccc1C(F)(F)F

>  <Dose.FC.LYZ.NS (log 2 fold change)>
0.078

$$$$
>  <molecule>
S=C=Nc1cccc(NC(=S)NCCCCNC(=S)Nc2cccc(N=C=S)c2)c1

>  <Dose.FC.LYZ.NS (log 2 fold change)>
0.116

$$$$
>  <molecule>
COc1ccc2c(c1)c(C1=C(c3c[nH]c4ccccc34)C(=O)NC1=O)cn2CCCN(C)C

>  <Dose.FC.LYZ.NS (log 2 fold change)>
−0.005

$$$$
>  <molecule>
OCCn1cc(-c2cnc3nnn(Cc4ccc5ncccc5c4)c3n2)cn1

>  <Dose.FC.LYZ.NS (log 2 fold change)>
0.085

$$$$
>  <molecule>
FC(F)(F)c1ccc(/C=C/c2nc(COc3ccc(CCCCn4ccnn4)cc3)co2)cc1

>  <Dose.FC.LYZ.NS (log 2 fold change)>
−0.057

$$$$
>  <molecule>
CC(=O)c1cc([N+](=O)[O-])c(Sc2ccc(F)cc2F)s1

>  <Dose.FC.LYZ.NS (log 2 fold change)>
0.039

$$$$
>  <molecule>
CCCCCCCCCCCCCCCCn1cc[n+](Cc2ccccc2)c1C.[I-]

>  <Dose.FC.LYZ.NS (log 2 fold change)>
−0.035

$$$$
>  <molecule>
CCc1cc(Nc2nccc(-c3c(-c4ccc(OC)c(C(=O)Nc5c(F)cccc5F)c4)nc4ccccn34)n2)c(OC)cc1N1CCC(N2CCN(S(C)(=O)=O)CC2)CC1 [GSK1904529A]

>  <Dose.FC.LYZ.NS (log 2 fold change)>
0.102

$$$$
>  <molecule>
CC(C)c1onc(-c2c(Cl)cccc2Cl)c1COc1ccc(/C=C/c2cccc(C(=O)O)c2)c(Cl)c1

>  <Dose.FC.LYZ.NS (log 2 fold change)>
0.170

$$$$

====

Measured SSMD.LYZ.NS_Rep (strictly standardized mean difference) of individual entries
- System: ISC-enriched organoids
- assay.notes: Primary screen, 384-well 2.5-D organoid differentiation (ENR+CD, 6 days): basal lysozyme secretion (LYZ.NS)
- Assay type: cell-based, murine
- condition.info: dose 0.08 uM (1st of 4 lines per treatment; dose not printed in this part)
parameter.measured: SSMD.LYZ.NS_Rep (strictly standardized mean difference)

>  <compound>
COc1cc2c(cc1O)CC[C@@H]1[C@@H]2CC[C@]2(C)[C@@H](O)CC[C@@H]12

>  <reading>
0.077

$$$$
>  <compound>
O=C(O)C(Cc1ccccc1[N+](=O)[O-])=NNc1nc(-c2ccc(Cl)c(Cl)c2)cs1 (mixture of isomers)

>  <reading>
0.378

$$$$
>  <compound>
N#Cc1c(O)c2c(-c3ccc(-c4ccccc4O)cc3)csc2[nH]c1=O

>  <reading>
0.286

$$$$
>  <compound>
CN1CCc2cc3c(cc2[C@H]1[C@@H]1OC(=O)c2c1ccc1c2OCO1)OCO3 [(+)-Bicuculline]

>  <reading>
0.481

$$$$

====

- System: ISC-enriched organoids
- assay.notes: Primary screen, 384-well 2.5-D organoid differentiation (ENR+CD, 6 days, Target Selective Inhibitor Library, vs whole-plate median): ATP (CellTiter-Glo 3D, CTG)
- condition.info: strictly standardized mean difference; primary screen; 2nd of the 4 dose lines of the treatment (dose not given)

>  <compound>
CCOC(=O)N1CCC(=C2c3ccc(Cl)cc3CCc3cccnc32)CC1 [Loratadine]

>  <target.entity>
ISC-enriched organoids

>  <SSMD.CTG>
0.535

$$$$
>  <compound>
Cc1ccc(C(=O)N(CCCN)[C@@H](c2nc3cc(Cl)ccc3c(=O)n2Cc2ccccc2)C(C)C)cc1 [Ispinesib (SB-715992)]

>  <target.entity>
ISC-enriched organoids

>  <SSMD.CTG>
−0.971

$$$$
>  <compound>
CC(C)(C)c1cc(C(C)(C)C)c(NC(=O)c2c[nH]c3ccccc3c2=O)cc1O [Ivacaftor (VX-770)]

>  <target.entity>
ISC-enriched organoids

>  <SSMD.CTG>
0.280

$$$$
>  <compound>
CC1=C(/C=C/C(C)=C/C=C/C(C)=C\C(=O)O)C(C)(C)CCC1 [Isotretinoin]

>  <target.entity>
ISC-enriched organoids

>  <SSMD.CTG>
0.966

$$$$
>  <compound>
O=C(O)CNC(=O)c1c(O)c2ccccc2n(Cc2ccccc2)c1=O [IOX2]

>  <target.entity>
ISC-enriched organoids

>  <SSMD.CTG>
0.264

$$$$
>  <compound>
O=C(Nc1ccccc1)N1CCN(c2nc(-c3ccccc3)ns2)CC1 [JNJ-1661010]

>  <target.entity>
ISC-enriched organoids

>  <SSMD.CTG>
−0.659

$$$$
>  <compound>
CC(C)c1ccc(NC(=O)Cn2cnc3c2c(=O)n(C)c(=O)n3C)cc1 [HC-030031]

>  <target.entity>
ISC-enriched organoids

>  <SSMD.CTG>
0.606

$$$$
>  <compound>
Cc1cc(Nc2cc(CN3CCOCC3)c3nc(C)c(Cc4ccc(Cl)cc4F)n3n2)n[nH]1 [LY2784544]

>  <target.entity>
ISC-enriched organoids

>  <SSMD.CTG>
0.135

$$$$
>  <compound>
Oc1ccc2ccccc2c1SSc1c(O)ccc2ccccc12 [IPA-3]

>  <target.entity>
ISC-enriched organoids

>  <SSMD.CTG>
−0.408

$$$$
>  <compound>
C=CCn1c(=O)c2cnc(Nc3ccc(N4CCN(C)CC4)cc3)nc2n1-c1cccc(C(C)(C)O)n1 [MK-1775]

>  <target.entity>
ISC-enriched organoids

>  <SSMD.CTG>
−1.242

$$$$
>  <compound>
O=C(c1cn(Cc2cncn2Cc2ccc(Br)cc2)cc1-c1cccc2ccccc12)N1CCOCC1 [LB42708]

>  <target.entity>
ISC-enriched organoids

>  <SSMD.CTG>
−0.531

$$$$
>  <compound>
COC(=O)CCSCc1ccc(-c2onc(C)c2NC(=O)OC(C)c2ccccc2Cl)cc1 (stereo not shown) [Ki16198]

>  <target.entity>
ISC-enriched organoids

>  <SSMD.CTG>
−0.359

$$$$
>  <compound>
CCN1CCC[C@H]1CNC(=O)c1cc(S(N)(=O)=O)ccc1OC [Levosulpiride]

>  <target.entity>
ISC-enriched organoids

>  <SSMD.CTG>
−0.019

$$$$
>  <compound>
CCn1c(=O)c2c(nc(/C=C/c3ccc(OC)c(OC)c3)n2C)n(CC)c1=O [Istradefylline]

>  <target.entity>
ISC-enriched organoids

>  <SSMD.CTG>
0.225

$$$$
>  <compound>
Cc1c(C(=O)Nc2ccc(N3C[C@@H](C)O[C@@H](C)C3)nc2)cccc1-c1ccc(OC(F)(F)F)cc1 [LDE225 (NVP-LDE225, Erismodegib)]

>  <target.entity>
ISC-enriched organoids

>  <SSMD.CTG>
0.163

$$$$
>  <compound>
c1cc(-c2cnn3cc(-c4ccc(N5CCNCC5)cc4)cnc23)c2cccnc2c1 [LDN-212854]

>  <target.entity>
ISC-enriched organoids

>  <SSMD.CTG>
0.242

$$$$
>  <compound>
Cl.Cl.O=S(=O)(NCCNC/C=C/c1ccc(Br)cc1)c1cccc2cnccc12 [H 89 2HCl]

>  <target.entity>
ISC-enriched organoids

>  <SSMD.CTG>
0.952

$$$$
>  <compound>
Nc1nc(CC(=O)Nc2ccc(CCNC[C@H](O)c3ccccc3)cc2)cs1 [Mirabegron]

>  <target.entity>
ISC-enriched organoids

>  <SSMD.CTG>
−0.380

$$$$
>  <compound>
COc1ccc(-c2cnc3c(-c4cccc5ncccc45)cnn3c2)cc1 [ML347]

>  <target.entity>
ISC-enriched organoids

>  <SSMD.CTG>
0.557

$$$$
